Target: α1-adrenergic
Assay: In vitro receptor affinity, α1-adrenergic
Assay type: binding
Conditions: rat, radioligand [3H]-prazosin; read-out: K1 (in vitro receptor affinity)
Description: ln vitro affinity for neurotransmitter receptors: The binding data collected below were either obtained by CE REP (128, rue Danton, 92500 Rueil-Malmaison, France) or at Solvay Pharmaceuticals B.V. (C. J. van Houtenlaan 36, 1381 CP Weesp, The Netherlands), using well documented standard procedures. The affinities for dopamine-D2 and 5-HT1A receptors for instance, were measured as described by Creese (1997) and Gozlan (1983) respectively.
assay endpoint: Ki (µM)
One number for each entry, in µM.

[O-][n+]1cc(CN2CCN(c3cccc4c3OCCO4)CC2)cc(-c2ccc(F)cc2)c1 [pyridine N-oxide] | 1

Next item in the queue.
[Q] Can you look up the measured Ki of Fc1ccc(-c2cncc(CN3CCN(c4cccc5c4OCCO5)CC3)c2)cc1 [SLV313, reference compound] for me?
[A] 0.5

###

Biological target: Muscarine-M5 (Homo sapiens)
Sequence (P08912 whole entry): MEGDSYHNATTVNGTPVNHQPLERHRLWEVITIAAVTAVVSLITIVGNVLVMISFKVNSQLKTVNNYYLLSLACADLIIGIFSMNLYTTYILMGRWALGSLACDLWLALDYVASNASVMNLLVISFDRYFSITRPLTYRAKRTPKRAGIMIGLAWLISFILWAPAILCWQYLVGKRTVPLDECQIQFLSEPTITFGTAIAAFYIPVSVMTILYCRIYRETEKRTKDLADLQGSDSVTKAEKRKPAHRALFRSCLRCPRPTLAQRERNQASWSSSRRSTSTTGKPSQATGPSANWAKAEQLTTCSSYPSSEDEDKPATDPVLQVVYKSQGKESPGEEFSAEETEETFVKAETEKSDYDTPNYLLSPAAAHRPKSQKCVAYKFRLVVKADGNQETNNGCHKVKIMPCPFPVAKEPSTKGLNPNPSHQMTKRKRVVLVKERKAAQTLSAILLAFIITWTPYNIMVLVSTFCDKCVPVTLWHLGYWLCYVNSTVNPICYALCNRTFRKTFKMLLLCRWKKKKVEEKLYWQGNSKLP
assay endpoint: Ki

[O-][n+]1cc(CN2CCN(c3cccc4c3OCCO4)CC2)cc(-c2ccc(F)cc2)c1 [pyridine N-oxide] | > 10 µM

Next item in the queue.
[Q] Can you look up the measured Ki of Fc1ccc(-c2cncc(CN3CCN(c4cccc5c4OCCO5)CC3)c2)cc1 [SLV313, reference compound] for me?
[A] > 1 µM

###

Assay: Brain concentrations in mice after i.v. or p.o. administration, LC-MS
Assay type: in vivo
Details: mouse, brain, po, 5 mg/kg p.o. of administered compound, 7 h, read-out: piperazine-N-ox analyzed in brain
Protocol: The LC-MS system consists of 2 Perkin elmer series 200 micro pumps. The pumps were connected to each other by a 50 pI tee mixer, and connected to a Gilson 215 auto sampler. The method was as follows: The auto sampler was connected to a Waters Atlantis C18 30*4.6 mm column with 3 μm particles. […] For oral (p.o.) administration: to the desired quantity (0.5-5 mg) of the solid test compound in a glass tube, some glass beads were added and the solid was milled by vortexing for 2 minutes. […]
assay endpoint: concentration at 7 h (ng/g)
One number for each entry, in ng/g.

[Q] Can you look up the measured concentration at 7 h of [O-][N+]1(Cc2cncc(-c3ccc(F)cc3)c2)CCN(c2cccc3c2OCCO3)CC1 [piperazine N-oxide] for me?
[A] 0

###

Assay: Brain concentrations in mice after i.v. or p.o. administration, LC-MS
Format: in vivo
Settings: mouse, brain, po, 5 mg/kg p.o. of administered compound, 0.17 h, read-out: piperazine-N-ox analyzed in brain
assay endpoint: concentration at 0.17 h (ng/g)
Numbers only, in ng/g.

[Q] Can you look up the measured concentration at 0.17 h of [O-][N+]1(Cc2cncc(-c3ccc(F)cc3)c2)CCN(c2cccc3c2OCCO3)CC1 [piperazine N-oxide] for me?
[A] 2.9

###

Experiment: Brain concentrations in mice after i.v. or p.o. administration, LC-MS
Assay type: in vivo
Conditions: mouse, brain, iv, 0.5 mg/kg i.v. of administered compound, 7 h, read-out: piperazine-N-ox analyzed in brain
assay endpoint: concentration at 7 h (ng/g)
One number for each entry, in ng/g.

[Q] Can you look up the measured concentration at 7 h of [O-][N+]1(Cc2cncc(-c3ccc(F)cc3)c2)CCN(c2cccc3c2OCCO3)CC1 [piperazine N-oxide] for me?
[A] 0

###

Assay: Brain concentrations in mice after i.v. or p.o. administration, LC-MS
Format: in vivo
Conditions: mouse, brain, iv, 0.5 mg/kg i.v. of administered compound, 0.17 h, read-out: piperazine-N-ox analyzed in brain
assay endpoint: concentration at 0.17 h (ng/g)
Give bare numbers, in ng/g.

[Q] Can you look up the measured concentration at 0.17 h of [O-][N+]1(Cc2cncc(-c3ccc(F)cc3)c2)CCN(c2cccc3c2OCCO3)CC1 [piperazine N-oxide] for me?
[A] 3.1

###

Assignment: determine reported Ki for the given compounds.
Molecular target: μ-opiate (Rattus norvegicus, UniProt P33535)
Sequence (P33535 whole entry): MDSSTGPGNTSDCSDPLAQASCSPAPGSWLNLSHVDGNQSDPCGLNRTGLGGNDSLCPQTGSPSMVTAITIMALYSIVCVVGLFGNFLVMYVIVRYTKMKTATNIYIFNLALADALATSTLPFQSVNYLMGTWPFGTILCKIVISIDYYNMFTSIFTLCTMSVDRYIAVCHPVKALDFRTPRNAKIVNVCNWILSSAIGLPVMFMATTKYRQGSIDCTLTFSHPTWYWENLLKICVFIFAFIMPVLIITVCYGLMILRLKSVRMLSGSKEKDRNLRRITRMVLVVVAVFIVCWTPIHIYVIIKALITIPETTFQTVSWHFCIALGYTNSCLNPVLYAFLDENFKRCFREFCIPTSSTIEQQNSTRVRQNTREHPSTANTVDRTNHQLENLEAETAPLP
Numbers only, in µM.

Please look at the items below and tell me Ki for each one, in order.
1. [O-][n+]1cc(CN2CCN(c3cccc4c3OCCO4)CC2)cc(-c2ccc(F)cc2)c1 [pyridine N-oxide]
2. Fc1ccc(-c2cncc(CN3CCN(c4cccc5c4OCCO5)CC3)c2)cc1 [SLV313, reference compound]

[A]
3.2
8

###

Let's go through some recorded Ki values for Serotonin-5-HT2C (Homo sapiens, UniProt P28335) together.

Fc1ccc(-c2cncc(CN3CCN(c4cccc5c4OCCO5)CC3)c2)cc1 [SLV313, reference compound] | > 1 µM

Next item in the queue.
[Q] Tell me reported Ki for [O-][n+]1cc(CN2CCN(c3cccc4c3OCCO4)CC2)cc(-c2ccc(F)cc2)c1 [pyridine N-oxide] , tested with Serotonin-5-HT2C (Homo sapiens, UniProt P28335).
Sequence (P28335 33-458): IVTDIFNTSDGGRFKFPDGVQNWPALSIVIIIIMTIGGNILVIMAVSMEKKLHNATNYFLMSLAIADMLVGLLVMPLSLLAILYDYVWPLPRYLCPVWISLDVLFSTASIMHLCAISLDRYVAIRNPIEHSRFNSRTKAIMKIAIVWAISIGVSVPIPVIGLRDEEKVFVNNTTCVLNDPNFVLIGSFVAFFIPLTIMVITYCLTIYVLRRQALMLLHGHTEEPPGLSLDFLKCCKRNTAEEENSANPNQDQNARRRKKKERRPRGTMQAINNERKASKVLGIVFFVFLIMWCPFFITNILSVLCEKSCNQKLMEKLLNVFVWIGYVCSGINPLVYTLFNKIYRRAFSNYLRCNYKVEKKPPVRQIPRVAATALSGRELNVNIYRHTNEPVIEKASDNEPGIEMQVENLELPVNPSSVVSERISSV
[A] > 10 µM

###

Experiment: Brain concentrations in mice after i.v. or p.o. administration, LC-MS
Format: in vivo
Details: mouse, brain, iv, 0.5 mg/kg i.v. of administered compound, 24 h, read-out: piperazine-N-ox analyzed in brain
assay endpoint: concentration at 24 h (ng/g)
Numbers only, in ng/g.

[Q] Can you look up the measured concentration at 24 h of [O-][N+]1(Cc2cncc(-c3ccc(F)cc3)c2)CCN(c2cccc3c2OCCO3)CC1 [piperazine N-oxide] for me?
[A] 0

###

Molecular target: Serotonin-5-HT1D
Test: In vitro receptor affinity, Serotonin-5-HT1D
Settings: bovine, radioligand [3H]-serotonin; read-out: K1 (in vitro receptor affinity)
assay endpoint: Ki (µM)
Numbers only, in µM.

Fc1ccc(-c2cncc(CN3CCN(c4cccc5c4OCCO5)CC3)c2)cc1 [SLV313, reference compound] | 13

Next item in the queue.
[Q] Tell me reported Ki for [O-][n+]1cc(CN2CCN(c3cccc4c3OCCO4)CC2)cc(-c2ccc(F)cc2)c1 [pyridine N-oxide] , tested with Serotonin-5-HT1D.
[A] 4

###

Target: Dopamine-D2 (Homo sapiens, UniProt P14416)
Sequence (P14416 whole entry): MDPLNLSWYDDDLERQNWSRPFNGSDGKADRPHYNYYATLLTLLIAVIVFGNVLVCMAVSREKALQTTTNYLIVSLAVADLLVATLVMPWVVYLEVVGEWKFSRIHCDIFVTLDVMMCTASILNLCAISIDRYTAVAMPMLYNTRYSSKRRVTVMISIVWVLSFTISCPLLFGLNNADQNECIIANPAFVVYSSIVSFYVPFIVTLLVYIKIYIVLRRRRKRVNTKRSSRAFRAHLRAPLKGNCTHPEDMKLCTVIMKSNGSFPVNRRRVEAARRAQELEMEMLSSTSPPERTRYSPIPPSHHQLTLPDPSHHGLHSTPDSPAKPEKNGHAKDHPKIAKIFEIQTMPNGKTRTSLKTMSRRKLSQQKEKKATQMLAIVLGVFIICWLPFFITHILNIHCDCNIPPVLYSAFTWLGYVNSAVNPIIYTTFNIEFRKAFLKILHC
Assay: In vitro receptor affinity, Dopamine-D2
Conditions: radioligand [3H]-spiperone, read-out: K1 (in vitro receptor affinity)
assay endpoint: Ki (nM)
One number for each entry, in nM.

[Q] Can you look up the measured Ki of [O-][n+]1cc(CN2CCN(c3cccc4c3OCCO4)CC2)cc(-c2ccc(F)cc2)c1 [pyridine N-oxide] for me?
[A] 5

###

Target: α2-adrenergic
Assay: In vitro receptor affinity, α2-adrenergic
Details: rat, radioligand [3H]-RX 821002; read-out: K1 (in vitro receptor affinity)
assay endpoint: Ki

[O-][n+]1cc(CN2CCN(c3cccc4c3OCCO4)CC2)cc(-c2ccc(F)cc2)c1 [pyridine N-oxide] | 630 nM

[Q] Can you look up the measured Ki of Fc1ccc(-c2cncc(CN3CCN(c4cccc5c4OCCO5)CC3)c2)cc1 [SLV313, reference compound] for me?
[A] > 1000 nM

###

Assignment: determine reported logP for the given molecules.
Test: Partition coefficient, experimental (Log P)
Assay type: physicochemical
Details: at pH 7.0
Answers are plain numbers.

# count of solved cases: 2
[O-][N+]1(Cc2cncc(-c3ccc(F)cc3)c2)CCN(c2cccc3c2OCCO3)CC1 [piperazine N-oxide] | 1.7
[O-][n+]1cc(CN2CCN(c3cccc4c3OCCO4)CC2)cc(-c2ccc(F)cc2)c1 [pyridine N-oxide] | 2.6

[Q] Can you look up the measured logP of Fc1ccc(-c2cncc(CN3CCN(c4cccc5c4OCCO5)CC3)c2)cc1 [SLV313, reference compound] for me?
[A] 3.6

###

Assignment: determine reported pKi for the given compounds.
Target: Serotonin-5-HT3 (Rattus norvegicus, UniProt P35563)
Sequence (P35563 24-483): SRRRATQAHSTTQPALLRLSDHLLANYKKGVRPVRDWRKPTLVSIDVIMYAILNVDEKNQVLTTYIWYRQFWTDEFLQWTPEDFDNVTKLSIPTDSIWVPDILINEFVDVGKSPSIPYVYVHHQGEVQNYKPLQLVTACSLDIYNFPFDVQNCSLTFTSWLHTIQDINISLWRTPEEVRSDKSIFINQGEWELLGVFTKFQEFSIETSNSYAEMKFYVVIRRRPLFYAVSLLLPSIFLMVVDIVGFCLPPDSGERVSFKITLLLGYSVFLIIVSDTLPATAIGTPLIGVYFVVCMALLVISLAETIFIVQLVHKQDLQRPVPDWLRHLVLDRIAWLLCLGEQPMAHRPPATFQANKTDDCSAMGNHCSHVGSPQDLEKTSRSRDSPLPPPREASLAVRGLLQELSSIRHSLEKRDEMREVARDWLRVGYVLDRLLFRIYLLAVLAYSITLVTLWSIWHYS
Test: In vitro receptor affinity, Serotonin-5-HT3
Format: binding
Conditions: radioligand [3H]-GR 38032F, read-out: K1 (in vitro receptor affinity)
pKi: −log10 of the molar value.

Fc1ccc(-c2cncc(CN3CCN(c4cccc5c4OCCO5)CC3)c2)cc1 [SLV313, reference compound] | < 6.00

Next item in the queue.
[Q] Can you look up the measured pKi of [O-][n+]1cc(CN2CCN(c3cccc4c3OCCO4)CC2)cc(-c2ccc(F)cc2)c1 [pyridine N-oxide] for me?
[A] < 5.00

###

Assay: Brain concentrations in mice after i.v. or p.o. administration, LC-MS
Assay type: in vivo
Conditions: mouse, brain, po, 5 mg/kg p.o. of administered compound, 3 h, read-out: piperazine-N-ox analyzed in brain
assay endpoint: concentration at 3 h (ng/g)
Give bare numbers, in ng/g.

[Q] Can you look up the measured concentration at 3 h of [O-][N+]1(Cc2cncc(-c3ccc(F)cc3)c2)CCN(c2cccc3c2OCCO3)CC1 [piperazine N-oxide] for me?
[A] 0

###

Assignment: determine reported pKi for the given compounds.
Molecular target: Histamine-H1 (Homo sapiens)
Sequence (P35367 whole entry): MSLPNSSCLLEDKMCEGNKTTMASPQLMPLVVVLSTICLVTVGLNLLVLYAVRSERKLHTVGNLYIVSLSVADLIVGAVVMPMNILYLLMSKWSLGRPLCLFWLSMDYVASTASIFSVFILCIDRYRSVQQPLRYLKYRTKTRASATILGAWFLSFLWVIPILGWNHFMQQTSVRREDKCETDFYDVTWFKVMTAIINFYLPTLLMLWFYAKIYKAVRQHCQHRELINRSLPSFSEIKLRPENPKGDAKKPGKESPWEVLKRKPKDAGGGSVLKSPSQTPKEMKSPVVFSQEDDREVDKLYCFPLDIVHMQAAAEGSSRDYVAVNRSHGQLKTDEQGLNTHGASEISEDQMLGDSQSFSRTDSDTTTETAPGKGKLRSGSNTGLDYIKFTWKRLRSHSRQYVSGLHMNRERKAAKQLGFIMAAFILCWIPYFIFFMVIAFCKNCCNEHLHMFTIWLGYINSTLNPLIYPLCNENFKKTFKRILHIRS
pKi: −log10 of the molar value.

Fc1ccc(-c2cncc(CN3CCN(c4cccc5c4OCCO5)CC3)c2)cc1 [SLV313, reference compound] | < 6.00

[Q] Can you look up the measured pKi of [O-][n+]1cc(CN2CCN(c3cccc4c3OCCO4)CC2)cc(-c2ccc(F)cc2)c1 [pyridine N-oxide] for me?
[A] < 5.00

These data points were gathered from patent US20070275977A1.
